- target_or_test_system: Adenosine receptor A2a (Homo sapiens); further: assay procedure not described here
- Sequence (P29274 whole entry): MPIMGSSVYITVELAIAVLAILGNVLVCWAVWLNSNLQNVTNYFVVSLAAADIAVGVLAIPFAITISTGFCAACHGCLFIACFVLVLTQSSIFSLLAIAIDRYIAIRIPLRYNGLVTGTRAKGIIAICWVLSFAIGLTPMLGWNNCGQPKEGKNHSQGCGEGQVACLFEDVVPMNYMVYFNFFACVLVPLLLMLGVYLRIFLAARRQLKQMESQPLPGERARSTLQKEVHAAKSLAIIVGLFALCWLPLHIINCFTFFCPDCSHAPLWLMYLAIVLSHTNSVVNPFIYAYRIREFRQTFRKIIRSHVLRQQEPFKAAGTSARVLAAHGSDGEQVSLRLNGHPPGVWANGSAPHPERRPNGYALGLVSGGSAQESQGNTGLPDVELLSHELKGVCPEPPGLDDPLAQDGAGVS
Task for the reader: assign each of the following compounds its reported AC50.

CC(C)Cc1ccc(CC(=O)O)cc1 has a reported AC50 of > 30 µM

C[N+](C)(C)CCOC(N)=O has a reported AC50 of > 10 µM

CN1CCCN=C1COC(=O)C(O)(c1ccccc1)C1CCCCC1 (stereo not drawn) has a reported AC50 of > 10 µM

CC(C)NCC(O)COc1ccc(COCCOC(C)C)cc1 (stereo not drawn) has a reported AC50 of > 30 µM

C#C[C@]1(O)CC[C@H]2[C@@H]3CCc4cc(O)ccc4[C@H]3CC[C@@]21C has a reported AC50 of > 30 µM

CN(CCOc1ccc(NS(C)(=O)=O)cc1)CCc1ccc(NS(C)(=O)=O)cc1 [DOFETILIDE] has a reported AC50 of > 30 µM

CC(C)C(=O)OCC(=O)[C@@]12O[C@H](C3CCCCC3)O[C@@H]1C[C@H]1[C@@H]3CCC4=CC(=O)C=C[C@]4(C)[C@H]3[C@@H](O)C[C@@]12C [CICLESONIDE] has a reported AC50 of > 30 µM

CN(C)C(=O)OC1N=C(c2ccccc2)c2cc(Cl)ccc2N(C)C1=O (stereo not drawn) has a reported AC50 of > 30 µM

C[C@H]1C[C@@H]2[C@H]([C@@H](O)C[C@@]3(C)[C@H]2CC[C@]3(O)C(=O)CO)[C@@]2(C)C=CC(=O)C=C12 has a reported AC50 of > 10 µM

CCC1(C2=CCCCCC2)C(=O)NC(=O)NC1=O has a reported AC50 of > 10 µM

Cc1ccc(C(=O)c2cc(O)c(O)c([N+](=O)[O-])c2)cc1 has a reported AC50 of > 30 µM

NC1=NC(=O)C(c2ccccc2)O1 (stereo not drawn) has a reported AC50 of > 30 µM

CC(=O)N[C@H]1[C@H]([C@H](O)[C@H](O)CO)OC(C(=O)O)=C[C@@H]1N=C(N)N has a reported AC50 of > 30 µM

CCOC(=O)[C@H](CCc1ccccc1)N[C@H]1CCCN2CCC[C@@H](C(=O)O)N2C1=O has a reported AC50 of > 30 µM

Cc1cccc(C)c1OCC(C)N (stereo not drawn) has a reported AC50 of > 30 µM

CCCCCOC(=O)Nc1nc(=O)n([C@@H]2O[C@H](C)[C@@H](O)[C@H]2O)cc1F has a reported AC50 of > 30 µM

NC(N)=Nc1nc(CSCCC(N)=NS(N)(=O)=O)cs1 has a reported AC50 of > 30 µM

CS(=O)(=O)c1ccc([C@@H](O)[C@@H](CO)NC(=O)C(Cl)Cl)cc1 has a reported AC50 of > 30 µM

* * *

- target_or_test_system: Amine oxidase [flavin-containing] A (Homo sapiens); further: assay procedure not described here
- Sequence (P21397 whole entry): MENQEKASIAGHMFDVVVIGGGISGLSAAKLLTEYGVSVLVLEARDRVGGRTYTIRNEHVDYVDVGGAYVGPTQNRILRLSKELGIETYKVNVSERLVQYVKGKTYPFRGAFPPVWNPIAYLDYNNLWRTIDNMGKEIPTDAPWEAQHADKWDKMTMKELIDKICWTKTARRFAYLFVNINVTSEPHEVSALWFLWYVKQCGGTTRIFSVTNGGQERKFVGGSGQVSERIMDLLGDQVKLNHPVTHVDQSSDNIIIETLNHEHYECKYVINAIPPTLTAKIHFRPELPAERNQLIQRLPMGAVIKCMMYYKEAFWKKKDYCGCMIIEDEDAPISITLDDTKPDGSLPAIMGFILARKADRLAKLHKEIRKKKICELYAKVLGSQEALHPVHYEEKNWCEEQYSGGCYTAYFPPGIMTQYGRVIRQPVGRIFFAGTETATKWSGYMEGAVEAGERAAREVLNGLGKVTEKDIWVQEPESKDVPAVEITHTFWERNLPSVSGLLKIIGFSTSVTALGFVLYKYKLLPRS
- Assay type: functional
metric_name: AC50

CC(C(O)c1ccc(O)cc1)N1CCC(Cc2ccccc2)CC1 (stereo not given) has a reported AC50 of > 30 µM

CC1=CC(=O)c2ccccc2C1=O has a reported AC50 of 17 µM

CCCS(=O)(=O)Nc1ccc(F)c(C(=O)c2c[nH]c3ncc(-c4ccc(Cl)cc4)cc23)c1F has a reported AC50 of > 30 µM

NS(=O)(=O)c1cc2c(cc1Cl)NC(CC1CCCC1)NS2(=O)=O (stereo not given) [CYCLOPENTHIAZIDE] has a reported AC50 of > 30 µM

OCCN1CCN(CCCN2c3ccccc3C=Cc3ccccc32)CC1 has a reported AC50 of > 30 µM

* * *

Here's what we have: AC50 numbers for Histamine H1 receptor (Homo sapiens, UniProt P35367).

NS(=O)(=O)c1cc(Cl)c(Cl)c(S(N)(=O)=O)c1 [DICHLORPHENAMIDE] has a reported AC50 of > 10 µM

Cc1nc2ccc(CN(C)c3ccc(C(=O)N[C@@H](CCC(=O)O)C(=O)O)s3)cc2c(=O)[nH]1 has a reported AC50 of > 30 µM

CC(=O)NS(=O)(=O)c1ccc(N)cc1 [SULFACETAMIDE] has a reported AC50 of > 10 µM

N[C@@H](CSCC(=O)O)C(=O)O has a reported AC50 of > 30 µM

COc1ccc(C(=O)N2CCN(c3ccc4c(c3)CCC(=O)N4)CC2)cc1OC has a reported AC50 of > 30 µM

Cc1c(C(=O)Nc2ccc(N3C[C@@H](C)O[C@@H](C)C3)nc2)cccc1-c1ccc(OC(F)(F)F)cc1 has a reported AC50 of > 10 µM

CN1C(=O)CC(C)(c2ccccc2)C1=O (stereo not drawn) [METHSUXIMIDE] has a reported AC50 of > 10 µM

Nc1ccc(/N=N/c2ccccc2)c(N)n1 has a reported AC50 of 4.5 µM

CC(Cc1ccccc1)NCCC(c1ccccc1)c1ccccc1 (stereo not drawn) has a reported AC50 of 7.9 µM

CCC1(C2=CCCCCC2)C(=O)NC(=O)NC1=O has a reported AC50 of > 10 µM

CN1CC[C@]23CCCC[C@H]2[C@H]1Cc1ccc(O)cc13 has a reported AC50 of > 30 µM

NC(CO)C(=O)NNCc1ccc(O)c(O)c1O (stereo not drawn) [BENSERAZIDE] has a reported AC50 of > 10 µM

CN(C)[C@@H]1C(O)=C(C(N)=O)C(=O)[C@@]2(O)C(O)=C3C(=O)c4c(O)ccc(Cl)c4[C@@H](O)[C@H]3C[C@@H]12 has a reported AC50 of > 10 µM

CS(=O)(=O)Nc1cc2occ(NC=O)c(=O)c2cc1Oc1ccccc1 has a reported AC50 of > 30 µM

CN1CCN(C(=O)OC2c3nccnc3C(=O)N2c2ccc(Cl)cn2)CC1 (stereo not drawn) has a reported AC50 of > 30 µM

C#C[C@]1(O)CC[C@H]2[C@@H]3CCC4=CCCC[C@@H]4[C@H]3CC[C@@]21C has a reported AC50 of > 30 µM

CCOc1cc(N)c([N+](=O)[O-])cc1C(=O)NC1CCN(CC2CC=CCC2)CC1 (stereo not drawn) [CINITAPRIDE] has a reported AC50 of 27 µM

C[C@H]1C[C@@H]2[C@H]([C@@H](O)C[C@@]3(C)[C@H]2CC[C@]3(O)C(=O)COC(=O)CCC(=O)O)[C@@]2(C)C=CC(=O)C=C12 [METHYLPREDNISOLONE HEMISUCCINATE] has a reported AC50 of > 30 µM

CN(CCCN1c2ccccc2CCc2ccccc21)CC(=O)c1ccc(Cl)cc1 has a reported AC50 of 0.65 µM

CN1CCc2cccc3c2[C@H]1Cc1ccc(O)c(O)c1-3 has a reported AC50 of 15 µM

CCCC(CCC)C(=O)O[C@H]1C[C@H]2CC[C@@H](C1)[N+]2(C)C has a reported AC50 of > 30 µM

O=C(NC[C@H]1CN(c2ccc(N3CCOCC3=O)cc2)C(=O)O1)c1ccc(Cl)s1 has a reported AC50 of > 30 µM

CC(C(=O)O)c1ccc(N2CC=CC2)c(Cl)c1 (stereo not drawn) has a reported AC50 of > 10 µM

CC(C)NCC(O)COc1ccc(COCCOC(C)C)cc1 (stereo not drawn) has a reported AC50 of > 10 µM

CC(=O)OCC(=O)[C@@]12OC3(CCCC3)O[C@@H]1C[C@H]1[C@@H]3CCC4=CC(=O)C=C[C@]4(C)[C@@]3(F)[C@@H](O)C[C@@]12C [AMCINONIDE] has a reported AC50 of > 10 µM

COC(=O)N[C@H](C(=O)N1CCC[C@H]1c1nc(-c2ccc(-c3ccc(-c4c[nH]c([C@@H]5CCCN5C(=O)[C@@H](NC(=O)OC)C(C)C)n4)cc3)cc2)c[nH]1)C(C)C has a reported AC50 of > 30 µM

COCC1=C(C(=O)OC(C)OC(=O)OC(C)C)N2C(=O)[C@@H](NC(=O)/C(=N\OC)c3csc(N)n3)[C@H]2SC1 (stereo partly drawn) has a reported AC50 of > 30 µM

COC(=O)[C@H]1[C@@H](OC(=O)c2ccccc2)C[C@@H]2CC[C@H]1N2C has a reported AC50 of > 30 µM

CCCS(=O)(=O)Nc1ccc(F)c(C(=O)c2c[nH]c3ncc(-c4ccc(Cl)cc4)cc23)c1F has a reported AC50 of > 30 µM

CCCC(=O)N1CCCN(c2nc(N)c3cc(OC)c(OC)cc3n2)CC1 has a reported AC50 of > 30 µM

CCCCCCCCCCCC[N+](C)(C)CCOc1ccccc1 has a reported AC50 of 12 µM

COC(=O)N[C@H](C(=O)N[C@@H](Cc1ccccc1)[C@@H](O)CN(Cc1ccc(-c2ccccn2)cc1)NC(=O)[C@@H](NC(=O)OC)C(C)(C)C)C(C)(C)C has a reported AC50 of > 10 µM

CCCCOc1cc(C(=O)NCCN(CC)CC)c2ccccc2n1 has a reported AC50 of > 10 µM

All values here come from ChEMBL document CHEMBL5291721.
